molecular target: Pyruvate kinase PKM (Homo sapiens); assay: Maximum activation of human PKM2 assessed as ATP product formation at 57 uM after 1 hr by luminescent pyruvate kinase-luciferase coupled assay relative to fructose-1,6-bis-phosphate
recorded_metric: Activity

INSERT INTO assay_data (compound, target_system, recorded_metric, recorded_result) VALUES
  ('CC(O)c1cc2c(s1)c1cnn(Cc3ccccc3F)c(=O)c1n2C (stereo unspecified)', 'Pyruvate kinase PKM (Homo sapiens)', 'Activity', '120%'),
  ('CC(=O)Nc1cc2c(s1)c1cnn(Cc3ccccc3F)c(=O)c1n2C', 'Pyruvate kinase PKM (Homo sapiens)', 'Activity', '59%'),
  ('Cc1cc2c(s1)c1cnn(Cc3cccc(C)c3F)c(=O)c1n2C', 'Pyruvate kinase PKM (Homo sapiens)', 'Activity', '97%'),
  ('COC(=O)c1cc2c(s1)c1cnn(Cc3ccccc3F)c(=O)c1n2C', 'Pyruvate kinase PKM (Homo sapiens)', 'Activity', '70%'),
  ('Cn1c2cc(C#N)sc2c2cnn(Cc3ccccc3F)c(=O)c21', 'Pyruvate kinase PKM (Homo sapiens)', 'Activity', '84%'),
  ('Cn1c2cc([S+](C)[O-])sc2c2cnn(Cc3cccc(O)c3)c(=O)c21 (stereo unspecified)', 'Pyruvate kinase PKM (Homo sapiens)', 'Activity', '102%'),
  ('Cc1cc2c(s1)c1cnn(Cc3ccc(F)c(F)c3F)c(=O)c1n2C', 'Pyruvate kinase PKM (Homo sapiens)', 'Activity', '69%'),
  ('COc1ccc(Cn2ncc3c4sc(C)cc4n(C)c3c2=O)cc1F', 'Pyruvate kinase PKM (Homo sapiens)', 'Activity', '68%'),
  ('Cc1ccc(Cn2ncc3c4sc(C)cc4n(C)c3c2=O)cc1', 'Pyruvate kinase PKM (Homo sapiens)', 'Activity', '84%'),
  ('Cc1cc2c(s1)c1cnn(Cc3ccccc3Cl)c(=O)c1n2C', 'Pyruvate kinase PKM (Homo sapiens)', 'Activity', '96%');

###

biological target: UniProt:P14618; experiment: Maximum activation of human PKM2 assessed as ATP product formation at 57 uM after 1 hr by luminescent pyruvate kinase-luciferase coupled assay relative to fructose-1,6-bis-phosphate
Sequence (P14618 2-531 limits assumed): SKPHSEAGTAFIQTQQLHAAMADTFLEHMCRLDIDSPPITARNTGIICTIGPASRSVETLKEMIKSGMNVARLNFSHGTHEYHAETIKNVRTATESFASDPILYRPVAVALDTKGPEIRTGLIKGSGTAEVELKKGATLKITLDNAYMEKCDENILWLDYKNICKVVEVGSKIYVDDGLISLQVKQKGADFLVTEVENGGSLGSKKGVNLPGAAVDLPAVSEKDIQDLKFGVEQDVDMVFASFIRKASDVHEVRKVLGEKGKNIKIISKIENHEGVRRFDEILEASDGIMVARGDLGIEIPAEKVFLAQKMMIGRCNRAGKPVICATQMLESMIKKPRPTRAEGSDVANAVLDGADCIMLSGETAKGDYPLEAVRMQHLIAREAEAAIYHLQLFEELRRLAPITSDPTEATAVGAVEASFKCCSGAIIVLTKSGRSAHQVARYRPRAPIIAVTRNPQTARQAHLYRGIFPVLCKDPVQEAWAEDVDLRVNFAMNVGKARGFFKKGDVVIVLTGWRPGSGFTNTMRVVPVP
The compounds listed here are annotated with their Activity.
recorded_metric: Activity (%)

INSERT INTO results (compound, recorded_metric, recorded_result) VALUES
  ('CC(C)c1cc2c(s1)c1cnn(Cc3ccccc3F)c(=O)c1n2C', 'Activity', 106),
  ('Cc1cc2c(s1)c1cnn(Cc3ccc(Cl)cc3)c(=O)c1n2C', 'Activity', 91),
  ('Cc1ccc(Cn2ncc3c4sc(C)cc4n(C)c3c2=O)c(F)c1', 'Activity', 81),
  ('Cc1cc2c(s1)c1cnn(Cc3cccc(Cl)c3)c(=O)c1n2C', 'Activity', 99),
  ('Cc1cc2c(s1)c1c(C)nn(Cc3ccccc3F)c(=O)c1n2C', 'Activity', 56),
  ('Cn1c2cc(CO)sc2c2cnn(Cc3ccccc3F)c(=O)c21', 'Activity', 103),
  ('Cc1cc2c(s1)c1cnn(Cc3ccc(F)cc3)c(=O)c1n2C', 'Activity', 102),
  ('Cc1cc2c(s1)c1cnn(Cc3c(F)cccc3Cl)c(=O)c1n2C', 'Activity', 93),
  ('CCc1cc2c(s1)c1cnn(Cc3ccccc3F)c(=O)c1n2C', 'Activity', 105),
  ('COc1ccc(Cn2ncc3c4sc(C)cc4n(C)c3c2=O)cc1', 'Activity', 96),
  ('Cc1cc2c(s1)c1cnn(Cc3c(F)c(F)cc(F)c3F)c(=O)c1n2C', 'Activity', 59),
  ('Cn1c2ccsc2c2ncn(Cc3ccccc3F)c(=O)c21', 'Activity', 61),
  ('CCn1c2cc(C)sc2c2cnn(Cc3ccccc3F)c(=O)c21', 'Activity', 96),
  ('Cc1cc2c(s1)c1cnn(Cc3ccccc3F)c(=O)c1n2C', 'Activity', 122),
  ('CCCCCn1ncc2c3sc(C)cc3n(C)c2c1=O', 'Activity', 47),
  ('Cc1cc2c(s1)c1cnn(Cc3cccc(F)c3)c(=O)c1n2C', 'Activity', 92),
  ('Cc1cc2c(s1)c1cnn(Cc3ccc(C(F)(F)F)cc3)c(=O)c1n2C', 'Activity', 56),
  ('Cn1c2cc([S+](C)[O-])sc2c2cnn(Cc3ccccc3F)c(=O)c21 (configuration not stated)', 'Activity', 98),
  ('Cn1c2cc(B(O)O)sc2c2cnn(Cc3ccccc3F)c(=O)c21', 'Activity', 101),
  ('CC(=O)c1cc2c(s1)c1cnn(Cc3ccccc3F)c(=O)c1n2C', 'Activity', 108),
  ('Cn1c2ccsc2c2cnn(Cc3ccccc3F)c(=O)c21', 'Activity', 93),
  ('CSc1cc2c(s1)c1cnn(Cc3ccccc3F)c(=O)c1n2C', 'Activity', 96);
